Tested on: 786-0 renal
EXPERIMENTAL PROTOCOL: NCI-60 one-dose screen, 48 h (100 = growth as untreated, 0 = no growth, -100 = all killed)
EXPERIMENTAL SETUP: 10 µM unless noted
About 83,000 compounds went through this panel and 20% of them were active in at least one assay; those are over-represented in the sample as a whole. Active and inactive are the calls of the source. The calls were made as follows: active = growth percent below 10; inactive = the rest.
The following compounds are shown together with reported growth values.

CCN(Cc1cccc(S(=O)(=O)[O-])c1)c1ccc(C(=C2C=CC(=[N+](CC)Cc3cccc(S(=O)(=O)O)c3)C=C2)c2ccccc2S(=O)(=O)O)cc1; 92.7% (inactive)

Ask: Report its growth with 786-0 renal as the test system: CC(=O)N1N=C(c2ccc(C(F)(F)F)cc2)CC1c1ccc2c(c1)OCO2 (stereo not given)
Result: 87.4% (inactive)

Ask: Report its growth with 786-0 renal as the test system: C/C(=C\CCc1ccoc1)CC/C=C(\C)CCCNc1ccc(F)cc1
Result: 95.1% (inactive)

Ask: Report its growth with 786-0 renal as the test system: CCOC(=O)C(Br)=P(c1ccccc1)(c1ccccc1)c1ccccc1
Result: 103% (inactive)

Ask: Report its growth with 786-0 renal as the test system: COc1cnc2c(c1)C(=O)c1c-2n(CCCN2CCOCC2)c(=O)c2cc(F)ccc12
Result: -60.1% (active)

Ask: Report its growth with 786-0 renal as the test system: O=c1c2ccccc2c2nccn2c2cc(Cl)ccc12
Result: 91.6% (inactive)

Ask: Report its growth with 786-0 renal as the test system: CC1(C)CC2(C)CC(=O)C1C(C(=O)O)C2C(=O)O (stereo not given)
Result: 123% (inactive)

Ask: Report its growth with 786-0 renal as the test system: CCc1ccc(-c2nc(SCC(=O)NC3CCCCC3)n[nH]2)cc1
Result: 73.4% (inactive)

Ask: Report its growth with 786-0 renal as the test system: O=C(c1ccccc1)C(CN1CCCCC1)c1ccccc1 (stereo not given)
Result: 1.38% (active)

Ask: Report its growth with 786-0 renal as the test system: O=C(Nc1cccc(Cl)c1)Nc1cccc(Cl)c1
Result: 77.1% (inactive)

---

Test system: MDA-MB-435 melanoma
EXPERIMENTAL PROTOCOL: NCI-60 one-dose screen, 48 h (100 = growth as untreated, 0 = no growth, -100 = all killed)
EXPERIMENTAL SETUP: 10 µM unless noted
About 83,000 compounds went through this panel and 20% of them were active in at least one assay; those are over-represented in the sample as a whole.
TEST READOUT: growth (%)
Give just the numeric value; % need not be written.

Use these answered entries as a reference point.
COC(=O)C1(NC(=O)CNC(=O)OCc2ccccc2)CCCC1; 106
c1ccc2nc(N/N=C3\CCCCC3C3CCCCC3)ccc2c1 (stereo unspecified); 78.8

Could you now look at the following compound, please?
Ask: Retrieve growth measured for O=C1c2cc3c(cc2-c2c1c1ccc(Cl)cc1c(=O)n2CCCNCCO)OCO3 and print it.
Result: -85

---

Test system: UO-31 renal
EXPERIMENTAL PROTOCOL: NCI-60 one-dose screen, 48 h
EXPERIMENTAL SETUP: 10 µM unless noted
This is part of a sample that, as a whole, favours compounds with a hit. Of some 83,000 tested, about 20% had one in any assay. The source made the active and inactive calls. Rule for the calls: active = growth percent below 10; inactive = the rest.
Outcome field: choose from active, inactive

CC[N+](CCCCCCCCCC[N+](CC)(c1ccccn1)c1ccccn1)(c1ccccn1)c1ccccn1; inactive
O=C(O)CCC(=O)OC[C@@H](NC(=O)C(Cl)Cl)[C@H](O)c1ccc([N+](=O)[O-])cc1; inactive
O=C(CC1Sc2ccccc2NC1=O)NNc1cccc(Cl)c1Cl (stereo unspecified); inactive
CC(C)Sc1nc(-c2ccc(Br)cc2)c(C#N)c(N2CCCCC2)n1; inactive
c1ccc2nc(N/N=C3\CCCCC3C3CCCCC3)ccc2c1 (stereo unspecified); inactive

Ask: Assay result, entry c1ccc(CN=C(NCc2ccccc2)NCc2ccccc2)cc1 — outcome?
Result: inactive

Ask: Assay result, entry COc1cc(-c2n[nH]nc2-c2ccccn2)cc(OC)c1OC — outcome?
Result: inactive

Ask: Assay result, entry O=c1sc2ncnc3ncn1c32 — outcome?
Result: inactive

Ask: Assay result, entry Nc1nc2c(c(=O)[nH]1)C1(C(=O)Nc3ccccc31)c1c(nc(N)[nH]c1=O)N2 — outcome?
Result: inactive

Ask: Assay result, entry FCc1ncc(-c2ccc(C(F)(F)F)cc2)c(NC2CCCCCC2)n1 — outcome?
Result: inactive

Ask: Assay result, entry NS(=O)(=O)c1ccc(-n2ncc3c(NC4CCCCC4)ncnc32)cc1 — outcome?
Result: active

---

Test system: HCC-2998 colon
EXPERIMENTAL PROTOCOL: NCI-60 one-dose screen, 48 h (100 = growth as untreated, 0 = no growth, -100 = all killed)
EXPERIMENTAL SETUP: 10 µM unless noted
This is part of a sample that, as a whole, favours compounds with a hit. Of some 83,000 tested, about 20% had one in any assay. The source made the active and inactive calls. The calls were made as follows: active = growth percent below 10; inactive = the rest.
The following molecules are shown together with reported growth values.

Use these answered entries as a reference point.
NS(=O)(=O)c1cc2c(cc1Cl)NC=NS2(=O)=O; 93.4% (inactive)
COc1cccc(/C=C2\Cc3ccccc3C2=O)c1; 105% (inactive)
O=C(O)CNC(=O)C1(N2C(=O)c3ccccc3C2=O)CCCC1; 104% (inactive)
COC(=O)N/N=C/c1coc2ccc(Cl)cc2c1=O; 101% (inactive)
COc1ccc(C2=NN(C=O)C(c3cccc(Nc4ccnc5cc(Cl)ccc45)c3)C2)cc1 (stereo unspecified); 57.8% (inactive)

Could you now look at the following molecule, please?
Ask: Retrieve growth measured for O=C(N/N=C/c1ccc(Cl)cc1Cl)c1ccccc1Nc1cccc(C(F)(F)F)c1 and print it.
Result: 88.2% (inactive)

---

System: SN12C renal
EXPERIMENTAL PROTOCOL: NCI-60 one-dose screen, 48 h
EXPERIMENTAL SETUP: 10 µM unless noted
About 83,000 compounds went through this panel and 20% of them were active in at least one assay; those are over-represented in the sample as a whole. Activity calls are given as the source filed them. The calls were made as follows: active = growth percent below 10; inactive = the rest.
Outcome field: choose from active, inactive

Consider the following illustrative entries.
Cc1sc2nc(N3CCCCC3)[nH]c(=O)c2c1C; inactive
Cc1ccc2nc3c(n2c1)C(=O)C(=O)c1ccccc1-3; active
Cc1cnc2nc(-c3ccc(N(C)C)cc3)cn2c1; inactive
COc1ccc(C2=NN(C=O)C(c3cccc(Nc4ccnc5cc(Cl)ccc45)c3)C2)cc1 (stereo unspecified); inactive
COc1ccc(/C=C2/SC(=Nc3c(C)nn(-c4ccccc4)c3N)NC2=O)cc1; inactive

Ask: Assay result, entry COC(=O)[C@H](Cc1cnc[nH]1)NC(=O)[C@@H](NC(=O)Nc1cc(C(F)(F)F)cc(C(F)(F)F)c1)C(C)C — outcome?
Result: active

Ask: Assay result, entry CCSc1nc(-c2cccs2)n2nc(-c3ccco3)cc2n1 — outcome?
Result: inactive

Ask: Assay result, entry Cc1csc(C#Cc2cncc(O)c2)n1 — outcome?
Result: inactive

Ask: Assay result, entry CN1CCN(c2nc3scc(-c4ccccc4)c3c(=O)[nH]2)CC1 — outcome?
Result: inactive

Ask: Assay result, entry O=C(Oc1ccccc1)C(Br)C(Br)c1ccccc1 (stereo unspecified) — outcome?
Result: inactive

Ask: Assay result, entry COc1cc(/C=C/c2cc(/C=C/c3ccc(O)c(OC)c3)n(C(=O)c3ccc(Cl)cc3)n2)ccc1O — outcome?
Result: inactive

Ask: Assay result, entry CCOC(=O)c1sc(NC(=O)COc2cccc(/C=C3\Cc4ccc(Cl)cc4C3=O)c2)nc1C — outcome?
Result: inactive

Ask: Assay result, entry COC(=O)[C@H](Cc1cn(C)cn1)NC(=O)[C@@H](NC(=O)Nc1cc(C(F)(F)F)cc(C(F)(F)F)c1)C(C)C — outcome?
Result: active

Ask: Assay result, entry CC(C)Sc1nc(-c2ccc(Br)cc2)c(C#N)c(N2CCCCC2)n1 — outcome?
Result: inactive

Ask: Assay result, entry COc1cccc(N2CCN(c3cccc(C)n3)CC2)c1 — outcome?
Result: inactive

Ask: Assay result, entry O=C(/C=C/c1ccc([N+](=O)[O-])cc1)c1ccc2c3c(cccc13)CC2 — outcome?
Result: inactive

---

Tested on: OVCAR-8 ovarian
EXPERIMENTAL PROTOCOL: NCI-60 one-dose screen, 48 h (100 = growth as untreated, 0 = no growth, -100 = all killed)
EXPERIMENTAL SETUP: 10 µM unless noted
The panel holds about 83,000 compounds, 20% with a hit somewhere; the sample as a whole holds those more often.
Values of growth greater than or equal to 90% map to 1 (yes); values below map to 0 (no).

O=C(/C=C/c1ccc([N+](=O)[O-])cc1)c1ccc2c3c(cccc13)CC2; 0 (no)
NS(=O)(=O)c1ccc(-n2ncc3c(N/N=C/c4ccccc4)ncnc32)cc1; 0 (no)
CC(C)N(Cc1ccccc1)c1c(Cl)ssc1=O; 0 (no)
O=C(NC1CCS(=O)(=O)C1)c1ccc(C(=O)c2ccccc2)cc1 (configuration not stated); 0 (no)
Cc1ccc2nc(SCC(=O)Nc3ccc(-c4nc5ccccc5s4)c(Cl)c3)[nH]c2c1; 1 (yes)

Ask: Determine whether this compound has growth no lower than 90%: Cc1ccc(-c2cc(-c3ccccc3)n(-c3ccccc3)n2)cc1
Result: 1 (yes)

Ask: Determine whether this compound has growth no lower than 90%: COc1ccc(CCN2C(=O)CCC3=C2CCCC3=O)cc1OC
Result: 1 (yes)

Ask: Determine whether this compound has growth no lower than 90%: CC(=O)[C@H]1CC[C@H]2[C@@H]3C[C@H](C)C4=CC(=O)CC[C@]4(C)[C@H]3C(=O)C[C@]12C
Result: 1 (yes)
